System: MCF-7 human breast carcinoma cells
Test: Inhibition of the growth of MCF-7 human breast carcinoma cells
Type: cell-based
property-label: Inhibition of MCF-7 cell growth (in words)

Solved cases below.
COc1cc(C(=O)c2cn(-c3ccncc3)cc2-c2ccccc2)cc(OC)c1OC : weak inhibitors
COc1cc(C(=O)c2cn(-c3ncccn3)cc2-c2ccco2)cc(OC)c1OC : strong inhibition
COc1cc(C(=O)c2cn(-c3cncnc3)cc2-c2ccccc2)cc(OC)c1OC : poor inhibitors
COc1cc(C(=O)c2cn(-c3cncnc3)cc2-c2ccco2)cc(OC)c1OC : poor inhibitors

Lab note: measured Inhibition of MCF-7 cell growth (in words) of COc1cc(C(=O)c2cn(-c3cnccn3)cc2-c2ccco2)cc(OC)c1OC was strong inhibition

Consider COc1cc(C(=O)c2cn(-c3ccncc3)cc2-c2ccco2)cc(OC)c1OC . Its measured Inhibition of MCF-7 cell growth (in words) is weak inhibitors

Entry COc1cc(C(=O)c2cn(-c3ncccn3)cc2-c2ccccc2)cc(OC)c1OC ; Inhibition of MCF-7 cell growth (in words) = strong inhibition

====

Test system: tubulin
Assay: Inhibition of [3H]colchicine binding to tubulin
Conditions: inhibitor at 1:5:5 μM
Procedure: The assembly reaction mixtures contained 0.8 M monosodium glutamate (pH 6.6 with HCl in a 2 M stock solution), 10 μM tubulin, 4% (v/v) DMSO, and varying concentrations of the drug. Following a 15 min preincubation at 30 °C, samples were chilled on ice, GTP to 0.4 mM was added, and turbidity development was followed at 350 nm in a temperature-controlled recording spectrophotometer for 20 min at 30 °C. The extent of reaction was measured. Full experimental details were previously described.[63] […]
Quick reference: Inhib. colch. binding 1-5-5 (% ± SD) of the listed items.
Answer format: numeric, % implied, no suffix.

// solved cases for Inhib. colch. binding 1-5-5 (% ± SD) follow
COc1cc(C(=O)c2cn(-c3ccncc3)cc2-c2ccco2)cc(OC)c1OC : 35
COc1cc(C(=O)c2cn(-c3cnccn3)cc2-c2ccco2)cc(OC)c1OC : 86
COc1cc(C(=O)c2ccn(-c3ccncc3)c2)cc(OC)c1OC : 1.4
COc1cc(C(=O)c2ccn(-c3ccccn3)c2)cc(OC)c1OC : 83

What the record says about COc1cc(C(=O)c2cn(-c3cccnc3)cc2-c2ccco2)cc(OC)c1OC : Inhib. colch. binding 1-5-5 (% ± SD) is 77

Briefly, Inhib. colch. binding 1-5-5 (% ± SD) measured for COc1cc(C(=O)c2cn(-c3ccncc3)cc2-c2ccccc2)cc(OC)c1OC : 17

The measured Inhib. colch. binding 1-5-5 (% ± SD) associated with COc1cc(C(=O)c2cn(-c3ncccn3)cc2-c2ccccc2)cc(OC)c1OC reads 88

Recorded Inhib. colch. binding 1-5-5 (% ± SD) (compound COc1cc(C(=O)c2cn(-c3ncccn3)cc2-c2ccco2)cc(OC)c1OC ): 88

The reported Inhib. colch. binding 1-5-5 (% ± SD) of the compound COc1cc(C(=O)c2cn(-c3ccccn3)cc2-c2ccco2)cc(OC)c1OC was 95

====

Tested on: U-87 MG GBM cells
Assay: U-87 MG proliferation assay (cell count, Trypan Blue)
Format: cell-based
Conditions: Homo sapiens, 48 h incubation, read-out: IC50 cell viability U-87 MG
property-label: pIC50
Here pIC50 is given on a logarithmic scale as minus log10 of the concentration in mol/L.

Record COc1cc(C(=O)c2cn(-c3ncccn3)cc2-c2ccco2)cc(OC)c1OC [Compound 15] , field pIC50: 8.00
